Test system: Human hepatocarcinoma 7 (Huh7) cells
Assay: Huh-7 CC50 (CellTiter Glo viability)
Format: cell-based
Details: 48 hours
endpoint_name: CC50

Take a look at these entries with their results.
CCOC(=O)[C@H](C)NP(=O)(OC[C@@]1(CF)O[C@@H](c2ccc3c(N)ncnn23)[C@H](O)[C@@H]1O)Oc1ccc(C(C)(C)C)cc1 (single isomer, unassigned) [Example 48] | 15.4 µM
C[C@H](NP(=O)(OC[C@@]1(CF)O[C@@H](c2ccc3c(N)ncnn23)[C@H](O)[C@@H]1O)Oc1ccccc1)C(=O)OCC(C)(C)C(F)(F)F (single isomer, unassigned) [Example 55] | > 25 µM
C[C@H](NP(=O)(OC[C@@]1(CF)O[C@@H](c2ccc3c(N)ncnn23)[C@H](O)[C@@H]1O)Oc1ccccc1)C(=O)OCC(C)(C)C(F)(F)F (single isomer, unassigned) [Example 54] | > 25 µM
CC(=O)O[C@H]1[C@H](c2ccc3c(N)ncnn23)O[C@](CF)(COP(=O)(N[C@@H](C)C(=O)OC2CCCCC2)Oc2ccccc2)[C@H]1OC(C)=O (stereo partly shown) | > 25 µM
CCOC(=O)[C@H](C)NP(=O)(OC[C@@]1(CF)O[C@@H](c2ccc3c(N)ncnn23)[C@H](OC(=O)C(C)C)[C@@H]1OC(=O)C(C)C)Oc1ccccc1 (stereo partly shown) | 16 µM
CCOC(=O)[C@H](C)NP(=O)(OC[C@@]1(CF)O[C@@H](c2ccc3c(N)ncnn23)[C@H](OC(=O)CC)[C@@H]1OC(=O)CC)Oc1ccccc1 (stereo partly shown) | > 25 µM

Moving on to the next molecule.
Fill blank: measured CC50 of the molecule CCOC(=O)[C@H](C)NP(=O)(OC[C@@]1(CF)O[C@@H](c2ccc3c(N)ncnn23)[C@H](OC(C)=O)[C@@H]1OC(C)=O)Oc1ccccc1 (stereo partly shown) is ____.
> 25 µM
